Quick reference: Total Cell Count of the listed items.
- Test system: HEK-293T
- EXPERIMENTAL DETAILS: Multiplex assay against HEK293T
- Type: toxicity, cell-based
- TEST CONDITIONS: human, 48 h, 10 µM, compound concentration 10 uM, replicate 2
MEASURED ENDPOINT: Total Cell Count

>>> recorded_measurement("Cc1ccc2c(c1)c1c(n2CCc2ccc(C)nc2)CCN(C)C1 [LATREPIRDINE]")
198
>>> recorded_measurement("C#Cc1cccc(Nc2ncnc3cc(OCCOC)c(OCCOC)cc23)c1")
197
>>> recorded_measurement("Cl.O=C(O)c1cc(-c2ccc(C3CCNCC3)cc2)c2ccc(-c3ccc(C(F)(F)F)cc3)cc2c1")
119
>>> recorded_measurement("CCCSc1nc(N[C@@H]2C[C@H]2c2ccc(F)c(F)c2)c2nnn([C@@H]3C[C@H](OCCO)[C@@H](O)[C@H]3O)c2n1")
164
>>> recorded_measurement("CNC(=O)Nc1ccc(-c2nc(N3CC4CCC(C3)O4)c3cnn(C4CCC5(CC4)OCCO5)c3n2)cc1")
181
>>> recorded_measurement("CN1CCN(Cc2ccc(Nc3ncc(Cl)c(Nc4ccccc4S(=O)(=O)N(C)C)n3)cc2)CC1")
210
>>> recorded_measurement("CC(C)OC(=O)N1CCC(Oc2ncnc3c2cnn3-c2ccc(S(C)(=O)=O)cc2F)CC1")
480
>>> recorded_measurement("Cc1ccccc1C(c1ccccc1C)N1C2CCC1CC(O)(c1ccccc1)C2 (centres undefined)")
302
>>> recorded_measurement("Cc1cccc(CN2CCN(C(c3ccccc3)c3ccc(Cl)cc3)CC2)c1.Cl.Cl (centres undefined)")
355

###

- Tested on: U2OS
- EXPERIMENTAL DETAILS: Multiplex assay against U2OS
- Format: toxicity, cell-based
- TEST CONDITIONS: human, 48 h, 1 µM, compound concentration 1 uM, replicate 2
MEASURED ENDPOINT: Population Normal (%)

>>> recorded_measurement("O=C(c1cc2c(cc1F)OC(c1ccc(F)cc1)(c1ccc(Cl)cc1Cl)O2)N1CCOCC1 (configuration not stated)")
96
>>> recorded_measurement("CC(C)OC(=O)N1CCC(Oc2ncnc3c2cnn3-c2ccc(S(C)(=O)=O)cc2F)CC1")
97
>>> recorded_measurement("Cl.O=C(O)c1cc(-c2ccc(C3CCNCC3)cc2)c2ccc(-c3ccc(C(F)(F)F)cc3)cc2c1")
97
>>> recorded_measurement("CNC(=O)Nc1ccc(-c2nc(N3CC4CCC(C3)O4)c3cnn(C4CCC5(CC4)OCCO5)c3n2)cc1")
85
>>> recorded_measurement("COc1cc(Nc2nccc(-c3cnn4nc(OC)ccc34)n2)cc(C(F)(F)F)c1")
92
>>> recorded_measurement("COc1ccccc1CN[C@H]1C2CCN(CC2)[C@H]1C(c1ccccc1)c1ccccc1")
99
>>> recorded_measurement("C[C@]12CC[C@@H]3c4ccc(O)cc4CC[C@H]3[C@@H]1CC[C@@H]2O")
97
>>> recorded_measurement("CC(C)NC(=O)N1CC[C@H](NC2=Nc3cc(F)ccc3N(CC(F)F)c3ccc(Cl)cc32)C1")
93
>>> recorded_measurement("CC(C)c1noc(N2CCC(COc3ccc(-c4ccc(S(C)(=O)=O)cc4)nc3)CC2)n1")
100
>>> recorded_measurement("CCc1nn(CCCN2CCN(c3cccc(Cl)c3)CC2)c(=O)n1CCOc1ccccc1.Cl [NEFAZODONE HYDROCHLORIDE]")
98
>>> recorded_measurement("CCCSc1nc(N[C@@H]2C[C@H]2c2ccc(F)c(F)c2)c2nnn([C@@H]3C[C@H](OCCO)[C@@H](O)[C@H]3O)c2n1")
96
>>> recorded_measurement("Cc1cccc(CN2CCN(C(c3ccccc3)c3ccc(Cl)cc3)CC2)c1.Cl.Cl (configuration not stated)")
92
>>> recorded_measurement("Cc1ccc(C)c(Oc2ccncc2C(=O)N2CCN(C3CC3)c3ccccc32)c1")
95
>>> recorded_measurement("COc1ccc(-c2ccc3ncc4c(c3c2)n(-c2ccc(N3CCNCC3)c(C(F)(F)F)c2)c(=O)n4C)cn1.O=C(O)/C=C\\C(=O)O")
65
>>> recorded_measurement("COc1cc2ncn(-c3cc(OCc4ccccc4C(F)(F)F)c(C(N)=O)s3)c2cc1OC [GW843682X]")
93
>>> recorded_measurement("COC(=O)C1=C(C)NC(C)=C(C(=O)OCCCN2CCC(c3ccccc3)(c3ccccc3)CC2)[C@H]1c1cccc([N+](=O)[O-])c1")
94
>>> recorded_measurement("O=c1cc(N2CCOCC2)oc2c(-c3cccc4c3sc3ccccc34)cccc12")
95

###

- Test system: Fibroblast
- EXPERIMENTAL DETAILS: Multiplex assay against human fibroblast
- Type: toxicity, cell-based
- TEST CONDITIONS: 48 h, 1 µM, compound concentration 1 uM, replicate 1
MEASURED ENDPOINT: Population Healthy Nuclei (%)

>>> recorded_measurement("CC(C)c1noc(N2CCC(COc3ccc(-c4ccc(S(C)(=O)=O)cc4)nc3)CC2)n1")
54
>>> recorded_measurement("Cc1cccc(CN2CCN(C(c3ccccc3)c3ccc(Cl)cc3)CC2)c1.Cl.Cl (stereo not drawn)")
58
>>> recorded_measurement("COC(=O)C1=C(C)NC(C)=C(C(=O)OCCCN2CCC(c3ccccc3)(c3ccccc3)CC2)[C@H]1c1cccc([N+](=O)[O-])c1")
44
>>> recorded_measurement("COc1ccccc1CN[C@H]1C2CCN(CC2)[C@H]1C(c1ccccc1)c1ccccc1")
60
>>> recorded_measurement("CCc1ccc(OCc2ccccc2C(=O)Nc2ccc3nc(C)cc(N)c3c2)cc1.Cl")
20
>>> recorded_measurement("O=c1cc(N2CCOCC2)oc2c(-c3cccc4c3sc3ccccc34)cccc12")
56
>>> recorded_measurement("COc1cc2ncn(-c3cc(OCc4ccccc4C(F)(F)F)c(C(N)=O)s3)c2cc1OC [GW843682X]")
38
>>> recorded_measurement("CN1CCN(Cc2ccc(Nc3ncc(Cl)c(Nc4ccccc4S(=O)(=O)N(C)C)n3)cc2)CC1")
46

###

- System: Fibroblast
- EXPERIMENTAL DETAILS: Multiplex assay against human fibroblast
- Format: toxicity, cell-based
- TEST CONDITIONS: 48 h, 10 µM, compound concentration 10 uM, replicate 2
MEASURED ENDPOINT: Population Fragmented Nuclei (%)

>>> recorded_measurement("CNC(=O)Nc1ccc(-c2nc(N3CC4CCC(C3)O4)c3cnn(C4CCC5(CC4)OCCO5)c3n2)cc1")
48
>>> recorded_measurement("O=c1cc(N2CCOCC2)oc2c(-c3cccc4c3sc3ccccc34)cccc12")
27
>>> recorded_measurement("CN1CCN(Cc2ccc(Nc3ncc(Cl)c(Nc4ccccc4S(=O)(=O)N(C)C)n3)cc2)CC1")
43
>>> recorded_measurement("COc1cc(Nc2nccc(-c3cnn4nc(OC)ccc34)n2)cc(C(F)(F)F)c1")
39
>>> recorded_measurement("CC1=C(C(=O)Nc2cc3cn[nH]c3cc2F)C(c2ccc(C(F)(F)F)cc2)CC(=O)N1 (stereo not given)")
26

###

- System: HEK-293T
- EXPERIMENTAL DETAILS: Multiplex assay against HEK293T
- Type: toxicity, cell-based
- TEST CONDITIONS: human, 48 h, 1 µM, compound concentration 1 uM, replicate 1
MEASURED ENDPOINT: Population Normal (%)

>>> recorded_measurement("Cc1cccc(CN2CCN(C(c3ccccc3)c3ccc(Cl)cc3)CC2)c1.Cl.Cl (stereo not given)")
82
>>> recorded_measurement("CNC(=O)Nc1ccc(-c2nc(N3CC4CCC(C3)O4)c3cnn(C4CCC5(CC4)OCCO5)c3n2)cc1")
66
>>> recorded_measurement("O=C(c1cc2c(cc1F)OC(c1ccc(F)cc1)(c1ccc(Cl)cc1Cl)O2)N1CCOCC1 (stereo not given)")
81
>>> recorded_measurement("Cc1ccc(C)c(Oc2ccncc2C(=O)N2CCN(C3CC3)c3ccccc32)c1")
91
>>> recorded_measurement("CN1CCN(Cc2ccc(Nc3ncc(Cl)c(Nc4ccccc4S(=O)(=O)N(C)C)n3)cc2)CC1")
89
>>> recorded_measurement("CC(C)OC(=O)N1CCC(Oc2ncnc3c2cnn3-c2ccc(S(C)(=O)=O)cc2F)CC1")
83
>>> recorded_measurement("CC1=C(C(=O)Nc2cc3cn[nH]c3cc2F)C(c2ccc(C(F)(F)F)cc2)CC(=O)N1 (stereo not given)")
89
>>> recorded_measurement("CCc1nn(CCCN2CCN(c3cccc(Cl)c3)CC2)c(=O)n1CCOc1ccccc1.Cl [NEFAZODONE HYDROCHLORIDE]")
94
>>> recorded_measurement("CCc1ccc(OCc2ccccc2C(=O)Nc2ccc3nc(C)cc(N)c3c2)cc1.Cl")
77
>>> recorded_measurement("CC(C)Oc1ccccc1C(=O)Nc1ccccc1C(=O)Nc1cccc(S(=O)(=O)C(F)(F)F)c1")
83
>>> recorded_measurement("COc1cc2ncn(-c3cc(OCc4ccccc4C(F)(F)F)c(C(N)=O)s3)c2cc1OC [GW843682X]")
82
>>> recorded_measurement("Cc1ccccc1C(c1ccccc1C)N1C2CCC1CC(O)(c1ccccc1)C2 (stereo not given)")
87
>>> recorded_measurement("COC(=O)C1=C(C)NC(C)=C(C(=O)OCCCN2CCC(c3ccccc3)(c3ccccc3)CC2)[C@H]1c1cccc([N+](=O)[O-])c1")
91
>>> recorded_measurement("Cc1c[nH]c2nccc(Oc3c(F)cc(Nc4cc(Cl)nc(N)n4)cc3F)c12")
90
>>> recorded_measurement("CC(C)c1noc(N2CCC(COc3ccc(-c4ccc(S(C)(=O)=O)cc4)nc3)CC2)n1")
85
>>> recorded_measurement("COc1ccccc1CN[C@H]1C2CCN(CC2)[C@H]1C(c1ccccc1)c1ccccc1")
85
>>> recorded_measurement("COc1ccc(-c2ccc3ncc4c(c3c2)n(-c2ccc(N3CCNCC3)c(C(F)(F)F)c2)c(=O)n4C)cn1.O=C(O)/C=C\\C(=O)O")
78
>>> recorded_measurement("COc1cc(Nc2nccc(-c3cnn4nc(OC)ccc34)n2)cc(C(F)(F)F)c1")
78
>>> recorded_measurement("Cl.O=C(O)c1cc(-c2ccc(C3CCNCC3)cc2)c2ccc(-c3ccc(C(F)(F)F)cc3)cc2c1")
78
>>> recorded_measurement("O=c1cc(N2CCOCC2)oc2c(-c3cccc4c3sc3ccccc34)cccc12")
90
>>> recorded_measurement("CCCSc1nc(N[C@@H]2C[C@H]2c2ccc(F)c(F)c2)c2nnn([C@@H]3C[C@H](OCCO)[C@@H](O)[C@H]3O)c2n1")
87
>>> recorded_measurement("C[C@]12CC[C@@H]3c4ccc(O)cc4CC[C@H]3[C@@H]1CC[C@@H]2O")
86
>>> recorded_measurement("CC(C)NC(=O)N1CC[C@H](NC2=Nc3cc(F)ccc3N(CC(F)F)c3ccc(Cl)cc32)C1")
78
>>> recorded_measurement("Cc1ccc2c(c1)c1c(n2CCc2ccc(C)nc2)CCN(C)C1 [LATREPIRDINE]")
89
>>> recorded_measurement("CC(C)(C)NC[C@H](O)COc1nsnc1N1CCOCC1")
89
